# Target system: Factor X (FX), P00742
# Sequence (P00742 whole entry, looked up): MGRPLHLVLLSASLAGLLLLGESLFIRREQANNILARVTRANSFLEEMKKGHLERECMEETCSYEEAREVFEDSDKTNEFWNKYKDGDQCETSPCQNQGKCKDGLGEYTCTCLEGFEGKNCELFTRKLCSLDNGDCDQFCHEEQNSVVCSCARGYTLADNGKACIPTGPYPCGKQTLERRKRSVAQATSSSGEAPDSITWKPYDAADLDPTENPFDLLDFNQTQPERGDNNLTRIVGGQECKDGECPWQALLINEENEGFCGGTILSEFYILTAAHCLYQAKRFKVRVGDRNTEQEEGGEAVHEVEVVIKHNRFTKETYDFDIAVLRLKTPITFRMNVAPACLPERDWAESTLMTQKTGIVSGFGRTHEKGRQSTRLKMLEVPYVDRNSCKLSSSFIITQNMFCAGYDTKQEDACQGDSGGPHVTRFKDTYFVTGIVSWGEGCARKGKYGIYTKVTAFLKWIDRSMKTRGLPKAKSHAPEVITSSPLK
Readout: kcat of FX activation by FIXa (Xase complex with FVIIIa, PC/PS vesicles, Ca2+) (s⁻¹)

• FIXa-Y155F/K247N/N249S/R318Y/R338E/R403E (protein) chain 1: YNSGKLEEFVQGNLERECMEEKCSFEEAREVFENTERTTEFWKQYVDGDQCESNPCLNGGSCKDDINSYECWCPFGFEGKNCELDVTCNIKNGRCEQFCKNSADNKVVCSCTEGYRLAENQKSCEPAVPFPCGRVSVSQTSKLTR chain 2: VVGGEDAKPGQFPWQVVLNGKVDAFCGGSIVNEKWIVTAAHCVETGVKITVVAGEHNIEETEHTEQNRSVIRIIPHHNYNAAINKYNHDIALLELDEPLVLNSYVTPICIADKEYTNIFLKFGSGYVSGWGRVFHKGYSALVLQYLRVPLVDRATCLESTKFTIYNNMFCAGFHEGGRDSCQGDSGGPHVTEVEGTSFLTGIISWGEECAMKGKYGIYTKVSEYVNWIKEKTKLT = 5.7
• FIXa-Y155F/N260S/R318Y/R338E/R403E/E410N (protein) chain 1: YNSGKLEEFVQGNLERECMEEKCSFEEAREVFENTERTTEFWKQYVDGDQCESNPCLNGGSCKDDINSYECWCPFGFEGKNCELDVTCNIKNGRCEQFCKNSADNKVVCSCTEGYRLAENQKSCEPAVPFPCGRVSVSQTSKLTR chain 2: VVGGEDAKPGQFPWQVVLNGKVDAFCGGSIVNEKWIVTAAHCVETGVKITVVAGEHNIEETEHTEQKRNVIRIIPHHNYSAAINKYNHDIALLELDEPLVLNSYVTPICIADKEYTNIFLKFGSGYVSGWGRVFHKGYSALVLQYLRVPLVDRATCLESTKFTIYNNMFCAGFHEGGRDSCQGDSGGPHVTEVEGTSFLTGIISWGEECAMKGKYGIYTKVSEYVNWIKNKTKLT = 5.8
